The measurements presented in this section are drawn from paper PMC8315922.

Listing of entries alongside the reported IC50.
Biological target: CSR3 (RNase III of SPCSV) (Sweet potato chlorotic stunt virus, UniProt Q8JJW8)
Sequence (Q8JJW8 entry or part of it): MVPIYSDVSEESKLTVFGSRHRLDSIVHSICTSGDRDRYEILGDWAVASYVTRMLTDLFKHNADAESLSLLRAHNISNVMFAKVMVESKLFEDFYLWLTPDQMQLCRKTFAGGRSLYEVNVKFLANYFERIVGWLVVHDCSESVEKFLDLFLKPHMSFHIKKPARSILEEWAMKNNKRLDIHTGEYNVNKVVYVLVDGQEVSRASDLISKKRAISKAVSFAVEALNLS
Assay: Kinetic-based FRET dose-response assay (IC50, DSS)
Type: biochemical
Details: repeat FIMM 1 (FIMM library compounds), 1.25 nM to 50 μM; unit inferred, numbers match nM (cf. Fig 5A); read-out: IC50 FIMM1

- compound: "Cc1ccc(C)c(C(=O)CSc2nnc[nH]2)c1"
  IC50 [nM]: 647
- compound: "O=C(O)c1ccc(C2Nc3c(Br)cccc3C3C=CCC32)cc1 (stereo not drawn)"
  IC50 [nM]: 1860
- compound: "O=S(=O)(O)c1cccc2cc(O)ccc12"
  IC50 [nM]: 699
- compound: "CCn1c(S)nnc1CCNC(=O)c1cccs1"
  IC50 [nM]: 3070
- compound: "O=C1c2c(O)ccc(O)c2C(=O)c2c(NCCNCCO)ccc(NCCNCCO)c21"
  IC50 [nM]: 1810
- compound: "COc1cc(C=C2C(=O)NC(=S)NC2=O)ccc1OCc1ccccc1[N+](=O)[O-]"
  IC50 [nM]: 3850
